Here, each record is paired with measured yeast saturation density relative to DMSO-treated control data.
# System: yeast y272 cotransformed with pWS192 and pWS496
# experimental.details: Yeast toxicity assay
# Type: cell-based
# assay.setup: 100 µM compound; 44 h at 30 °C

>  <structure.notation>
O=S(=O)(O)c1cc(O)c2c(O)c(N=Nc3cccc4ccccc34)c(S(=O)(=O)O)cc2c1

>  <recorded.result>
> 90%

$$$$

Consider now this further compound.
Reported yeast saturation density relative to DMSO-treated control, compound O=S(=O)(O)CCCc1cccc2ccccc12 : ____
> 90%

----------
# test.target: rat IDE (Rattus norvegicus)
# Sequence (P35559 whole entry): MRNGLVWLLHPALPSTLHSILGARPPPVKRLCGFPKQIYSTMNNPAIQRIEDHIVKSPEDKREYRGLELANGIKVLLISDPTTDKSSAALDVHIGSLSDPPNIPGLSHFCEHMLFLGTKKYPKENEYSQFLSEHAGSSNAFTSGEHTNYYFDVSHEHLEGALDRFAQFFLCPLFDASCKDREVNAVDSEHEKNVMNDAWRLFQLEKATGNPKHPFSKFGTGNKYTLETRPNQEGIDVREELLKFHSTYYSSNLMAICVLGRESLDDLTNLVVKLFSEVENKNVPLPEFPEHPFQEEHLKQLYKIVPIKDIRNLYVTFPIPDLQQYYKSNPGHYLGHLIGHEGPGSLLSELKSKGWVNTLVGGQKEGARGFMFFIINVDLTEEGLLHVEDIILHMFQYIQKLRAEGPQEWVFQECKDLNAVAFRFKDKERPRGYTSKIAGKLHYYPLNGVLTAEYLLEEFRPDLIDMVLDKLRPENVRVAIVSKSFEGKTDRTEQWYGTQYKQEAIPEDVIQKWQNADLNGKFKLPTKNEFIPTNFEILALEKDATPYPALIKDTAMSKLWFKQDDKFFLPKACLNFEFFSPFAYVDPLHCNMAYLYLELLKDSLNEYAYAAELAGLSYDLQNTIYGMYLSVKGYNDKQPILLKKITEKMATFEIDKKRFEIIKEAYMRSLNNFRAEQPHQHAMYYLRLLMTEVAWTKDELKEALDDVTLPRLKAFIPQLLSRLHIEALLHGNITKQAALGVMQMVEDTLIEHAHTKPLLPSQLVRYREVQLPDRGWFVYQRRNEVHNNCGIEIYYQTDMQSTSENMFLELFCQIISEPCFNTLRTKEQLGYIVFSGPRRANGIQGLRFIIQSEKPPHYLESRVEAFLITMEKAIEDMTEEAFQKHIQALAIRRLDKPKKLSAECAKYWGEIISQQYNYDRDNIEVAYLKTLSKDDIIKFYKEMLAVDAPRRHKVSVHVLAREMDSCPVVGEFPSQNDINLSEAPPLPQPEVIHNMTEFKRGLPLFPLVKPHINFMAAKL
# Assay type: biochemical
# assay.setup: 100 µM compound; a-factor–based substrate 50 µM; 0.1 M KPi pH 7.6; relative to DMSO-treated control = 100%
Here, each record is paired with measured % Activity IDE data.
Give a bare numeral; the unit % is implied.

Worked examples, 5 compounds total:
>  <compound>
O=S(=O)(O)CCCc1cccc2ccccc12 [Compound 1]

>  <test.target>
rat IDE (Rattus norvegicus)

>  <% Activity IDE [%]>
195.4

$$$$
>  <compound>
O=S(=O)(O)c1cc(O)c2c(O)c(N=Nc3cccc4ccccc34)c(S(=O)(=O)O)cc2c1 [Compound 3]

>  <test.target>
rat IDE (Rattus norvegicus)

>  <% Activity IDE [%]>
356.0

$$$$
>  <compound>
O=C(O)c1ccc(Oc2nc3ccccc3s2)cc1 [Compound 7]

>  <test.target>
rat IDE (Rattus norvegicus)

>  <% Activity IDE [%]>
186.6

$$$$
>  <compound>
Cn1ncc2c(NCCc3ccccc3)nc(Cl)nc21 [Compound 2]

>  <test.target>
rat IDE (Rattus norvegicus)

>  <% Activity IDE [%]>
170.3

$$$$
>  <compound>
O=[N+]([O-])/C=C/c1cc2ccccc2[nH]1 [Compound 8]

>  <test.target>
rat IDE (Rattus norvegicus)

>  <% Activity IDE [%]>
195.0

$$$$

Reported % Activity IDE, compound O=C(CCN1CC2CCC(CC2)C1)c1cccs1 [Compound 6] : ____
230.7

Reported % Activity IDE, compound Nc1nc(SCc2ccccc2Cl)cc(C(=O)O)n1 [Compound 5] : ____
263.5

----------
# test.target: UniProt P35559
# experimental.details: Kinetic analysis of rat IDE in presence of activator
# Assay type: biochemical
# assay.setup: compound 100 µM; 0.1 M KPi pH 7.6; DMSO control 154.8 ± 12.26
readout.label: Vmax (nmol/min/mg)
Give a bare numeral; the unit nmol/min/mg is implied.

Worked examples, 5 compounds total:
>  <structure.notation>
Cn1ncc2c(NCCc3ccccc3)nc(Cl)nc21

>  <units.text>
nmol/min/mg

>  <Vmax>
164.2

$$$$
>  <structure.notation>
O=C(O)c1ccc(Oc2nc3ccccc3s2)cc1

>  <units.text>
nmol/min/mg

>  <Vmax>
194.1

$$$$
>  <structure.notation>
Nc1nc(SCc2ccccc2Cl)cc(C(=O)O)n1

>  <units.text>
nmol/min/mg

>  <Vmax>
127.8

$$$$
>  <structure.notation>
O=S(=O)(O)CCCc1cccc2ccccc12

>  <units.text>
nmol/min/mg

>  <Vmax>
194.1

$$$$
>  <structure.notation>
O=C(CCN1CC2CCC(CC2)C1)c1cccs1

>  <units.text>
nmol/min/mg

>  <Vmax>
176.3

$$$$

Consider now this further compound.
Reported Vmax, compound O=[N+]([O-])/C=C/c1cc2ccccc2[nH]1 : ____
185.0
